- protocol notes: Biochemical counterscreen for C difficile toxins, absence of UDPG, inhibitor dose response (AID 720650)
- particulars: series mostly up to 19.5 µM
Active and inactive are the calls of the source. No rule for the calls is given here.
Assign a class; possible classes are active, inactive

Worked examples follow.
compound: CCc1ccc2oc(-c3cc(N)ccc3Cl)nc2c1
category: inactive
--
compound: Cc1ccc(/C=C/c2onc(C)c2S(=O)(=O)N2CCC(C(=O)NC(C)(C)C)CC2)cc1
category: inactive
--
compound: COc1cc(/C=C/C(=O)OCC(=O)NC(=O)NC(C)C)ccc1O
category: inactive

Give the logged outcome of this assay for the following compound: CCOc1ccccc1/C=C/c1onc(C)c1S(=O)(=O)N1CCC(C(=O)NC(C)C)CC1
inactive

// outcome(item) with item = COc1ccc(C2=NS(=O)(=O)N(C)C(C(=O)NCc3ccc(F)cc3)=C2)cc1OC
inactive

Could you kindly confirm the outcome this assay logged for Cc1cc(C)c(S(=O)(=O)c2ccc(Cl)cc2C)c(Cl)n1 ?
inactive

Record request — test call for O=C(c1ccc(N2CCOCC2)c([N+](=O)[O-])c1)N1CCN(c2ccccc2F)CC1
inactive

What did this assay record as the result for Cc1cc(C(=O)CSc2nc(N)cc(=O)[nH]2)c(C)n1CC1CCCO1 (configuration not stated) ?
inactive

Please let me know the test result on file for Cc1cccc(N/N=C/c2ccncc2)c1 .
active

Outcome logged for Cc1ccc(/C=C/c2onc(C)c2S(=O)(=O)N2CCC(C(=O)N3CCCCC3)CC2)cc1 in this assay:
inactive

Record lookup: outcome of this test for Cc1ccn2c(Cc3ccccc3)c(-c3ccc(F)cc3)nc2c1 ?
inactive

Entry CN1C=CC(=CC=C2C=CC(=O)C=C2)C=C1 : call = ?
active

Tell me the recorded outcome of this test for O=C(NCCc1ccc(Cl)cc1)C1CCN(S(=O)(=O)c2ccc(Br)s2)CC1 .
inactive

Entry O=C(CSc1nnc(-c2ccncc2)o1)N1CCCCCC1 : call = ?
inactive
